Hello, the source for this data is ChEMBL document CHEMBL1201862, in case you need it.

# measurement_description: Luminescence Cell-Based Dose Response HTS to Identify Activators of Luciferase Translation or Activity in H4 […] Cells. [Related pubchem assays: 1829 (Project Summary), 1814 (Primary HTS)]
# Format: functional
Activity calls are given as the source filed them.
result_type: EC50

Ask: Any idea what EC50 was measured for `Cc1ccc(S(=O)(=O)Nc2nc3ccccc3nc2NCc2ccco2)cc1` ?
Reply: 10.8 µM (active)

Ask: Any idea what EC50 was measured for N#Cc1c(N2CCCC(O)C2)nc(N)c2c(N)nc3c(c12)CC(=O)N3C12CC3CC(CC(C3)C1)C2 (stereo unspecified) ?
Reply: 9.64 µM (active)

Ask: Any idea what EC50 was measured for `O=C(OCc1nc2ccccc2s1)C1CCN(C2=NS(=O)(=O)c3ccccc32)CC1` ?
Reply: 24.8 µM (active)

Ask: Any idea what EC50 was measured for `COc1ccc(Nc2ccc3c(c2)=NC2(CCCCC2)[N+]=3[O-])cc1` ?
Reply: > 120 µM (not active)

Ask: Any idea what EC50 was measured for `COc1ccccc1-c1nn2c(-c3ccco3)nnc2s1` ?
Reply: < 0.1 µM (active)

Ask: Any idea what EC50 was measured for `CC1(C)Cc2c(c(N3CCOCC3)nc3snc(N)c23)CO1` ?
Reply: > 120 µM (not active)

Ask: Any idea what EC50 was measured for `O=C(NCc1ccccc1)c1cccc(COc2ccc(Cl)cc2)c1` ?
Reply: < 0.1 µM (active)

Ask: Any idea what EC50 was measured for `CC(C)C[C@@H](CSc1ccccc1)N1CCN(CC(C)C)CCC1=O` ?
Reply: 41.4 µM (active)

Ask: Any idea what EC50 was measured for `CCOc1ccc(C(=O)c2cccs2)cc1` ?
Reply: 13.5 µM (active)

Ask: Any idea what EC50 was measured for `CC(C)Sc1nc(NCc2ccco2)c2c3c(sc2n1)COC(C)(C)C3` ?
Reply: 17.2 µM (active)

Ask: Any idea what EC50 was measured for `COc1cccc(COC(=O)Nc2ccccc2F)c1` ?
Reply: < 0.1 µM (inconclusive)

###

# experimental_target: Protein RecA (Mycobacterium tuberculosis)
# measurement_description: Fluorescence Cell-Free Homogeneous Dose Retest to Identify Inhibitors of RecA-Intein Splicing Activity. [Related pubchem assays (depositor defined):AID2097, AID2223, AID489010, AID492950]
# Type: functional
Active and inactive are the calls of the source.
Answer with one of the outcomes active, inactive

Ask: Test call, this molecule: `Cc1nc([N+](=O)[O-])c(Sc2nc3ccccc3[nH]2)n1Cc1ccccc1`
Reply: active

Ask: Test call, this molecule: `CCOC(=O)C1CCN(c2nc(N)c3c(N)nc(SCC(=O)O)cc3c2C#N)CC1`
Reply: inactive

Ask: Test call, this molecule: Cc1cccc(S(=O)(=O)C(C#N)c2nc3ccccc3nc2N2CCCC2)c1 (centres undefined)
Reply: inactive

Ask: Test call, this molecule: `COc1ccc(Nc2ccc3c(c2)=NC2(CCCCC2)[N+]=3[O-])cc1`
Reply: active

Ask: Test call, this molecule: COCc1n[nH]c2c1C(c1ccsc1)C(C#N)=C(N)O2 (centres undefined)
Reply: active

Ask: Test call, this molecule: `COc1ccccc1NC1=C(N2CCCCC2)C(=O)c2ccccc2C1=O`
Reply: active

Ask: Test call, this molecule: `CCOC(=O)c1c(NC(C)=O)sc2c1CCC(/C=N/CCCN(CC)CC)=C2Sc1ccccc1`
Reply: active

Ask: Test call, this molecule: `Cc1cccc(CS(=O)(=O)c2ncc(Cl)c(C(=O)Nc3nnc(C(C)C)s3)n2)c1`
Reply: active

Ask: Test call, this molecule: `Cc1nn(-c2ccccc2)c(O)c1/C=N/N1CCOCC1`
Reply: active

###

# experimental_target: Large T antigen (Simian virus 40, UniProt P03070);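 also: Confirmatory-stage PubChem screen for compounds that inhibit SV40 T antigen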
# Sequence (P03070 whole entry): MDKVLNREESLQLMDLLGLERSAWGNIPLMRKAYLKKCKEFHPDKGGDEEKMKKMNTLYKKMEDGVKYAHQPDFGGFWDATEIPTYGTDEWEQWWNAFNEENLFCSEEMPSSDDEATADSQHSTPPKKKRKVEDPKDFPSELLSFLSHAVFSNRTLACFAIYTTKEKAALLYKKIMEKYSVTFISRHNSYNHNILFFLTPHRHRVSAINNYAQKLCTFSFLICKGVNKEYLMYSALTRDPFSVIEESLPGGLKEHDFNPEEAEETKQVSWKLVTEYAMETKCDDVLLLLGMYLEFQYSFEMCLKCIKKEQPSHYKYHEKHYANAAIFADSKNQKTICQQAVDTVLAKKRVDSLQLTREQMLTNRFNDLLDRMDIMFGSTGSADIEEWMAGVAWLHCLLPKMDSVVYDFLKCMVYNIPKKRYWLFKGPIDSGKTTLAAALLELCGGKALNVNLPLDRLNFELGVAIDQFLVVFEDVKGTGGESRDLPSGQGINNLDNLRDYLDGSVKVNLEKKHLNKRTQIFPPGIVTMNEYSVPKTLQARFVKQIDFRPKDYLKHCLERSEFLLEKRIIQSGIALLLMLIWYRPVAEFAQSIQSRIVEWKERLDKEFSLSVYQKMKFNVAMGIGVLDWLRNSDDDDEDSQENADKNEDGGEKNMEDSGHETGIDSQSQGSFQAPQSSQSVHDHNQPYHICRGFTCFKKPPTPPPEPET
# Format: functional, Betapolyomavirus macacae
Activity calls are given as the source filed them.
result_type: IC50

Ask: Under Large T antigen (Simian virus 40, UniProt P03070): IC50 value of `C/C(CC(=O)Nc1ccc(N(C)C)cc1)=N\NC(=O)c1ccc(Cl)cc1Cl` ?
Reply: 9.26 µM (active)

Ask: Under Large T antigen (Simian virus 40, UniProt P03070): IC50 value of `COc1cc(/C(C)=N/NC(=O)CSc2nc3ccccc3[nH]2)ccc1O` ?
Reply: 22.9 µM (active)

Ask: Under Large T antigen (Simian virus 40, UniProt P03070): IC50 value of COC(=O)CC1SC(=O)NC1=Nc1ccc(O)cc1 (stereo unspecified) ?
Reply: 16.8 µM (active)

Ask: Under Large T antigen (Simian virus 40, UniProt P03070): IC50 value of `CC(=O)Nc1ccc(N2CCCCC2)cc1` ?
Reply: 13.2 µM (active)

Ask: Under Large T antigen (Simian virus 40, UniProt P03070): IC50 value of `Oc1ccc(/C=N/Nc2nccnc2Cl)cc1` ?
Reply: 6.32 µM (active)

Ask: Under Large T antigen (Simian virus 40, UniProt P03070): IC50 value of `O=C(c1ccco1)N1CCN(C(=S)Nc2ccc(F)c(Cl)c2)CC1` ?
Reply: > 100 µM (active)

###

Kindly supply the reported AC50 values for the records listed here.
# experimental_target: Cytochrome P450 2C19 (Homo sapiens)
# Sequence (P33261 whole entry): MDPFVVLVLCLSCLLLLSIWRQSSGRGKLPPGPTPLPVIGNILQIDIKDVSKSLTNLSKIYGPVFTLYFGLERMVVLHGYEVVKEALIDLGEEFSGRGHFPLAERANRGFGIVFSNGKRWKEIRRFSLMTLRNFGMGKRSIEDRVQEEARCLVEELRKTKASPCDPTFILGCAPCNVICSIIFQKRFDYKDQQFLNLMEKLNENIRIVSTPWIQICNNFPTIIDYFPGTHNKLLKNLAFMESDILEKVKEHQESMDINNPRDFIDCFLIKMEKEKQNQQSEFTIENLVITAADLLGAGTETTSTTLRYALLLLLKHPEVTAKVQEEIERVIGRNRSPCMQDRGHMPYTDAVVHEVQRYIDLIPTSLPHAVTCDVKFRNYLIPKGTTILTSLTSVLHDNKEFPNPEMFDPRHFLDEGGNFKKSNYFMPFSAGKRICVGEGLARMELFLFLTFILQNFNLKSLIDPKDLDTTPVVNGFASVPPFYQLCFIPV
# measurement_description: Cytochrome panel assay with activity outcomes. Panel member name: p450-cyp2c19 Compounds with AC50 equal or less than 10 uM are considered active
# Assay type: functional
# settings: read-out: AC50

Ask: Any idea what AC50 was measured for `CCOc1ccc(N2C(=O)CN=C2Nc2ccccc2F)cc1` ?
Reply: 25.1 µM (inconclusive)

Ask: Any idea what AC50 was measured for `Cc1cc(C)c(C#N)c(Oc2ccccc2)n1` ?
Reply: 11.2 µM (inconclusive)

Ask: Any idea what AC50 was measured for COc1ccc(C(=O)NC(C)c2cc(OC)c(OC)cc2Br)cc1 (centres undefined) ?
Reply: 39.8 µM (inconclusive)

Ask: Any idea what AC50 was measured for `Fc1ccc(N2CCN(c3ccc4c(C(F)(F)F)cc(C(F)(F)F)nc4n3)CC2)cc1` ?
Reply: 22.4 µM (inconclusive)

###

# experimental_target: Rac GTPase-activating protein 1 (Homo sapiens)
# Sequence (Q9H0H5 whole entry): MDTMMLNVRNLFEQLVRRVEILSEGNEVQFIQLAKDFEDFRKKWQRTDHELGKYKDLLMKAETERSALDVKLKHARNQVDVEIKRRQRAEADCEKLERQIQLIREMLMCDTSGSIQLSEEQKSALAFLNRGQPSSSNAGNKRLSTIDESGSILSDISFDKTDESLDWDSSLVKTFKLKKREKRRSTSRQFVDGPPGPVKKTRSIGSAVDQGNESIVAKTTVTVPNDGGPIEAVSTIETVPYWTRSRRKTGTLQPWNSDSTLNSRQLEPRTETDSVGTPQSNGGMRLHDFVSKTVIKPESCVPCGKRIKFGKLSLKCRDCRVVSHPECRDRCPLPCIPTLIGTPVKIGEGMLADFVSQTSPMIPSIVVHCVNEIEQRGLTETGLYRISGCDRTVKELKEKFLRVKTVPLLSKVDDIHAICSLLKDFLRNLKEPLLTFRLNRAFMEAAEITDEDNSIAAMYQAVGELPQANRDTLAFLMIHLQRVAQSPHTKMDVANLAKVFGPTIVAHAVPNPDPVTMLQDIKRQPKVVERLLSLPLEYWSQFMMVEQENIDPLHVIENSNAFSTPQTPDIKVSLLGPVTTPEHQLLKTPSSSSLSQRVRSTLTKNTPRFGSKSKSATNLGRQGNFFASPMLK
# measurement_description: blockers of MgcRacGAP-driven Rac1 GTP hydrolysis – biochemical, ADP Hunter fluorescence, primary and confirmatory, confirmation (AID 624330)
# Type: functional
Activity calls are given as the source filed them.
result_type: IC50

Ask: Any idea what IC50 was measured for `O=C(CN1CCN(c2ccccn2)CC1)Nc1ccc(F)cc1` ?
Reply: 78.9 µM (active)

Ask: Any idea what IC50 was measured for `COc1cc(/C=C/C(=O)OCC(=O)NCCC2=CCCCC2)ccc1O` ?
Reply: 49 µM (active)

Ask: Any idea what IC50 was measured for `Oc1ccc(/C=N/NC2=NCCCCC2)c(O)c1` ?
Reply: 43.2 µM (active)
